Biological target: PD-1/PD-L1 (Homo sapiens (Human), UniProt Q9NZQ7)
Sequence (Q9NZQ7 19-238): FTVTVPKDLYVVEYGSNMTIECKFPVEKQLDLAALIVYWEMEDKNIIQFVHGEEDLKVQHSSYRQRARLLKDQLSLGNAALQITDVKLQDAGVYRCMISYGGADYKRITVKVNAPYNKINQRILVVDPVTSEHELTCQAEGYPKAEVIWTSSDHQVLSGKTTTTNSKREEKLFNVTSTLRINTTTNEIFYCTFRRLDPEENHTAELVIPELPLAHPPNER
Test: PD-1/PD-L1 biochemical protein-protein interaction assay (ALPHA)
Conditions: 0.3 nM His tagged PD-L1, 2.5 nM biotinylated Fc-PD-1, 60 minutes at 25° C., read-out: IC50 PD-L1-PD1
Quick list: log10 of IC50 per entry.
Values below are the log10 of the recorded IC50, with nM as the unit.

stdin: I'd like to know its log10 of IC50. The compound in question is Cc1nc(-c2cccc(-c3cccc(-c4cnc(CN5CC6(CNC(=O)C6)C5)c(C)n4)c3Cl)c2Cl)cnc1CN1CC2(CNC(=O)C2)C1
stdout: -0.06

stdin: I'd like to know its log10 of IC50. The compound in question is CSc1nc(-c2cccc(-c3cccc(-c4cnc(CN5CC(O)C5)c(SC)n4)c3Cl)c2Cl)cnc1CN1CC(O)C1
stdout: -0.66

stdin: I'd like to know its log10 of IC50. The compound in question is COc1nc(-c2cccc(-c3cc(F)cc(-c4cnc(CNC[C@@H]5CCC(=O)N5)c(OC)n4)c3Cl)c2Cl)cnc1CNC[C@@H]1CCC(=O)N1
stdout: -0.71

stdin: I'd like to know its log10 of IC50. The compound in question is CNc1nc(-c2cccc(-c3cccc(-c4cnc(CN5CC(O)C5)c(NC)n4)c3Cl)c2Cl)cnc1CN1CC(O)C1
stdout: -0.72

stdin: I'd like to know its log10 of IC50. The compound in question is COc1ccnc2c1CN(Cc1ncc(-c3cccc(-c4cccc(-c5cnc(CNC[C@@H]6CCC(=O)N6)c(OC)n5)c4Cl)c3Cl)nc1OC)C2
stdout: -0.25

# evaluate next
stdin: I'd like to know its log10 of IC50. The compound in question is CNC(=O)C1CN(Cc2ncc(-c3cccc(-c4cccc(-c5cnc(CNC[C@@H]6CCC(=O)N6)c(OC)n5)c4Cl)c3Cl)nc2OC)C1
stdout: -1.19
